Target: Glycoprotein 42 (Epstein-Barr virus (strain AG876)) (UniProt Q1HVG2)
Sequence (Q1HVG2 whole entry, looked up): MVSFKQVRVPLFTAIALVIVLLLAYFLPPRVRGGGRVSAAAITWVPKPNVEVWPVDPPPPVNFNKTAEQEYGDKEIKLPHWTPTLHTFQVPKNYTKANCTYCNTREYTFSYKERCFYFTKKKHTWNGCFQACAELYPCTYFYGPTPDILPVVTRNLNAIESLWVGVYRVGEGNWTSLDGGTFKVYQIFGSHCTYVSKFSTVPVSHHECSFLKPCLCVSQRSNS
Assay: EBV glycoprotein 42 binding blockers – biochemical, uHTS, fluorescence polarization, primary screen (AID 1085)
Conditions: Fluorescence polarization binding assay, mP read-out; stronger effect = higher value; tested at 21.74 µM
Out of some 220,000 compounds screened, about 930 (0.42%) were called active. Only a selection was taken, and actives are over-represented in it overall.
reported_metric: inhibition (%)
Give the value, in units of %, as a plain number.

Field: example entries. Status: answers known.
{"molecule": "Cc1ccc(S(=O)(=O)Nc2nc3ccccc3nc2N2CCc3ccccc3C2)cc1", "measured_on": "Glycoprotein 42 (Epstein-Barr virus (strain AG876)) (UniProt Q1HVG2)", "inhibition / %": 8.67}
{"molecule": "Cc1cccc2cc3c(N)c(C(=O)N4CCCc5ccccc54)sc3nc12", "measured_on": "Glycoprotein 42 (Epstein-Barr virus (strain AG876)) (UniProt Q1HVG2)", "inhibition / %": 88.5}
{"molecule": "CCOCCCNC(=S)N1CCC(NC(=O)C2CCCCC2)CC1", "measured_on": "Glycoprotein 42 (Epstein-Barr virus (strain AG876)) (UniProt Q1HVG2)", "inhibition / %": -2.69}
{"molecule": "COc1cc(C(CCN2CCN(c3ccccc3)CC2)c2c(OC)cc(OC)c3ccc(=O)oc23)cc(OC)c1OC (stereo not given)", "measured_on": "Glycoprotein 42 (Epstein-Barr virus (strain AG876)) (UniProt Q1HVG2)", "inhibition / %": -16.3}
{"molecule": "O=C(Nc1cn(-c2ccccc2)nc1-c1ccccc1)c1ccccc1", "measured_on": "Glycoprotein 42 (Epstein-Barr virus (strain AG876)) (UniProt Q1HVG2)", "inhibition / %": -10.3}
{"molecule": "COc1ccc(C2C=C(c3ccc(Br)cc3)Nc3nc(NS(C)(=O)=O)nn32)cc1 (stereo not given)", "measured_on": "Glycoprotein 42 (Epstein-Barr virus (strain AG876)) (UniProt Q1HVG2)", "inhibition / %": 80.6}

Assay Glycoprotein 42 (Epstein-Barr virus (strain AG876)) (UniProt Q1HVG2), sample `Cc1cc(C(=O)N/N=C/c2ccc(N3CCOCC3)cc2)c(C)o1` , inhibition read: -16.3

// returns inhibition for `COc1cc(C(F)(F)F)nc2c(Br)c(C(C)(C)C)nn12` with Glycoprotein 42 (Epstein-Barr virus (strain AG876)) (UniProt Q1HVG2); value = -5.73

// molecule `Cc1cnc(C(=O)OCC(=O)NCCCc2ccccc2)cn1` , assay Glycoprotein 42 (Epstein-Barr virus (strain AG876)) (UniProt Q1HVG2), inhibition value: -8.79
